Assay: Terminal half life in dog at 0.5 mg/kg, iv
Format: ADME, organism-based, Canis lupus familiaris
Design: dose 0.5 mg/kg, route intravenous
Settings: in vivo, read-out: beta t1/2 (converted)
Measured half-life values are reported for all entries that follow.

compound: Cc1ccc(-n2nccn2)c(C(=O)N2CCN(c3nc4cc(Cl)ccc4o3)CC[C@H]2C)c1 [SUVOREXANT]
half-life (h): 3.3
--
compound: Cc1ccc(-n2nccn2)c(C(=O)N2CCCN(c3ncc4ccccc4n3)CC2)c1
half-life (h): 1.28

====

Assay: Drug level in Sprague-Dawley rat CSF at 30 mg/kg/day, po
Type: ADME, organism-based, Cerebrospinal fluid
Parameters: route oral
Conditions: in vivo, read-out: Drug uptake
metric: concentration

compound: Cc1ccc(-n2nccn2)c(C(=O)N2CCN(c3nc4cc(Cl)ccc4o3)CC[C@H]2C)c1 [SUVOREXANT]
metric: concentration
reading: 21 nM

====

Assay: Lipophilicity, log P of the compound
Assay type: physicochemical
Details: octanol/water
Entries annotated with measured logP
metric: logP

compound: Cc1ccc(-n2nccn2)c(C(=O)N2CCN(c3nc4cc(Cl)ccc4o3)CC[C@H]2C)c1 [SUVOREXANT]
reading: 3.6

compound: Cc1ccc(-n2nccn2)c(C(=O)N2CCN(c3ncc4cc(F)ccc4n3)CC[C@H]2C)c1
reading: 3

====

The compounds listed here are annotated with their Cmax.
Test: Cmax in dog at 3 mg/kg, po
Type: ADME, organism-based, Canis lupus familiaris
Design: dose 3 mg/kg, route oral
Details: in vivo

compound: Cc1ccc(-n2nccn2)c(C(=O)N2CCN(c3nc4cc(Cl)ccc4o3)CC[C@H]2C)c1 [SUVOREXANT]
Cmax: 3200 nM
//
compound: Cc1ccc(-n2nccn2)c(C(=O)N2CCCN(c3ncc4ccccc4n3)CC2)c1
Cmax: 1440 nM

====

Test: Drug level in Sprague-Dawley rat CSF at 10 mg/kg/day, po after 1 hr
Format: ADME, organism-based, Cerebrospinal fluid
Design: route oral
Settings: read-out: Drug uptake

input.smiles: Cc1ccc(-n2nccn2)c(C(=O)N2CCN(c3ncc4cc(F)ccc4n3)CC[C@H]2C)c1
unit: nM
concentration at 1 h: 1000

====

Target: Orexin/Hypocretin receptor type 1 (Homo sapiens)
Sequence (O43613 whole entry): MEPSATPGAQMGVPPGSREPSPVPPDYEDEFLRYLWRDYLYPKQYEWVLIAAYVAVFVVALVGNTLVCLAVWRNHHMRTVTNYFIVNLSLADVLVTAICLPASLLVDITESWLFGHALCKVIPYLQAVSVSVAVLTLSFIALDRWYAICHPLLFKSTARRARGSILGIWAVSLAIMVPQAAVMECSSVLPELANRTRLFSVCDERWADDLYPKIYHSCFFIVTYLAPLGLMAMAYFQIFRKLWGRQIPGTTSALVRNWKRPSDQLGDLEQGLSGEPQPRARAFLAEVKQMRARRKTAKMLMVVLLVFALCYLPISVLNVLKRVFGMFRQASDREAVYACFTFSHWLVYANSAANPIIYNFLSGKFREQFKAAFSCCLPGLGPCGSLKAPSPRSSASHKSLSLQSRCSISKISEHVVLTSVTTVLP
Experiment: Displacement of [3H](S)-N-(biphenyl-2-yl)-1-(2-(1-methyl-1H-benzo[d]imidazol-2-ylthio)acetyl)pyrrolidine-2-carboxamide from human OX1R expressed in CHO cells after 3 hrs by scintillation counting
Format: cell-based
Consider the following molecules and their measured Ki readings.

input.smiles: C[C@@H]1CCN(c2cnc3cc(F)c(F)cc3n2)CCN1C(=O)c1ccccc1-n1nccn1
unit: nM
Ki: 1.8
--
input.smiles: C[C@H]1CCN(c2ncc3ccccc3n2)CCN1C(=O)c1ccccc1-n1nccn1
unit: nM
Ki: 54
--
input.smiles: Cc1ccc(-n2nccn2)c(C(=O)N2CCN(c3nc4ccccc4o3)CC[C@H]2C)c1
unit: nM
Ki: 4.1

Numbers sourced from ChEMBL document CHEMBL1155457.
